The reported numbers originate from ChEMBL document CHEMBL5154671.

Reported EC50 values for the following compounds.
# testedSystem: Free fatty acid receptor 1 (Homo sapiens)
# Sequence (O14842 whole entry): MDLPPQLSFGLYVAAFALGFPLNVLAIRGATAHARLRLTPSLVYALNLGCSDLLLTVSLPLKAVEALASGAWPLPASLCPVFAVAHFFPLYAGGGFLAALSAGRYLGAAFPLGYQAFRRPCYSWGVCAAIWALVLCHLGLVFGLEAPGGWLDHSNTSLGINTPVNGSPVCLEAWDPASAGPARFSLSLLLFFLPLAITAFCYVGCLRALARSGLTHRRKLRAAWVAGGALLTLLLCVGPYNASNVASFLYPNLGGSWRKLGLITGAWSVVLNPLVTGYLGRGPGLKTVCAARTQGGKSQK
# procedureDetails: Agonist activity at human FFA1 expressed in CHO cells measured by FLIPR assay
# Assay type: functional, cell-based
// return numeric value only (unit: nM, not printed)

{"columns": ["smilesStr", "testedSystem", "EC50 / nM"],
 "data": [
  ["O=C(O)COc1ccc(COc2cccc(-c3nc4ccccc4s3)c2)cc1F", "Free fatty acid receptor 1 (Homo sapiens)", 2100]
]}

The reported value for COc1ccc(/C=C/c2cc(OC)cc(OCc3ccc(OCC(=O)O)cc3)c2)cc1 in terms of EC50 is 10300

So for O=C(O)COc1ccc(COc2cccc(-c3nc4cc(Cl)ccc4o3)c2)cc1F , the logged EC50 turned out to be 6800

What the record says about COc1ccc(/C=C/c2cc(OC)cc(OCc3ccc(OCC(=O)O)c(F)c3)c2)cc1 : EC50 is 1500

EC50 for COc1ccc(-c2cccc(OCc3ccc(OCC(=O)O)c(F)c3)c2)cc1 is 400

Sample COc1ccc(/C=C/c2cc(OC)cc(OCCCCCCCC(=O)O)c2)cc1 ; EC50 observed: 1800

Record CCOc1ccc(/C=C/c2cc(OCC)cc(OCc3ccc(OCC(=O)O)c(F)c3)c2)cc1 , field EC50: 4200
